ASSAY_METHOD_TEXT: Phenomenex Kinetex C18, 150 × 2.1 mm, 1.7 µm, 30 °C, 0.3 mL/min; A: water + 0.1% formic acid; B: acetonitrile + 0.1% formic acid; gradient (min/%B) 0/2 14/100 17/100 17/2 25/2
CONDITION_SET: stereoisomer not certain
PROPERTY_LABEL: LC retention time (min)

>>> numeric_readout("COc1cc2c(cc1O)CCC1C2CCC2(C)C(O)CCC12 (stereo not given)")
10.5
>>> numeric_readout("CC12CCC(=O)C=C1CCC1C2C(=O)CC2(C)C1CCC2(O)C(=O)CO (stereo not given)")
7.75
>>> numeric_readout("COc1cc2c(cc1O)C1CCC3(C)C(O)CCC3C1CC2 (stereo not given)")
9.26
>>> numeric_readout("CC(=O)C1CCC2C3CCC4=CC(=O)CCC4(C)C3CCC12C (stereo not given)")
12.9
>>> numeric_readout("CC12CCC3c4ccc(O)cc4C(O)CC3C1CCC2O (stereo not given)")
7.01
>>> numeric_readout("CC12CC(O)C3C(CCC4=CC(=O)CCC43C)C1CCC2=O (stereo not given)")
8.87
>>> numeric_readout("CC12CCC(=O)C=C1CCC1C2CCC2(C)C(C(=O)CO)CCC12 (stereo not given)")
10.5
>>> numeric_readout("CC12CCC(O)CC1CCC1C2CCC2(C)C1CCC2(O)C(=O)CO (stereo not given)")
10.1

(A) CC12CCC(O)CC1CCC1C2C(=O)CC2(CO)C(C(=O)CO)CCC12 (stereo not given)
(B) CC(=O)C1(O)CCC2C3CCC4=CC(=O)CCC4(C)C3CCC21C (stereo not given)
Request: Identify the entry with the larger LC retention time. Options: A and B Identify your pick by its label.
Response: B
(B: 10.9 min, A: 7.57 min)

(I) CC12CCC3c4ccc(OS(=O)(=O)O)c(O)c4CCC3C1CCC2=O (stereo not given)
(II) CC12C=CCC1C1CCC3CC(O)CCC3(C)C1CC2 (stereo not given)
Request: Identify the entry with the larger LC retention time. Options: I and II Identify your pick by its label.
Response: II
(II: 11.9 min, I: 7.73 min)

(a) CC12CCC(=O)CC1CCC1C2C(O)CC2(C=O)C(C(=O)CO)CCC12 (stereo not given)
(b) COc1cc2c(cc1OC)C1CCC3(C)C(O)CCC3C1CC2 (stereo not given)
(c) CC(CCC(=O)O)C1CCC2C3CCC4CCCCC4(C)C3CC(O)C12C (stereo not given)
Request: Rank order required: LC retention time, descending. Dear reader, please state the labels in the requested order.
Response: c, b, a

----------
ASSAY_METHOD_TEXT: Phenomenex Kinetex C18, 150 × 2.1 mm, 1.7 µm, 30 °C, 0.3 mL/min; A: water + 0.1% formic acid; B: acetonitrile + 0.1% formic acid; gradient (min/%B) 0/2 14/100 17/100 17/2 25/2
CONDITION_SET: stereoisomer not certain
PROPERTY_LABEL: LC retention time (min)

Recorded LC retention time, per entry:
>>> numeric_readout("CC12CCC(=O)C=C1CCC1C2C(O)CC2(C)C(C(=O)C(=O)O)CCC12 (stereo not given)")
8.1
>>> numeric_readout("COc1cc2c(cc1O)C1CCC3(C)C(=O)CCC3C1CC2 (stereo not given)")
9.83
>>> numeric_readout("CC(=O)C1C(O)CC2C3CCC4=CC(=O)CCC4(C)C3CCC21C (stereo not given)")
9.08

(A) CC12CCC(=O)C=C1CCC1C2C(O)CC2(CO)C(C(=O)CO)CCC12 (stereo not given)
(B) CC(=O)C1CCC2C3=CC=C4CC(O)CCC4(C)C3CCC12C (stereo not given)
Request: Please compare: A and B . Report which one has the smaller LC retention time value. Identify your pick by its label.
Response: A

Attribution: the RepoRT retention time repository (doi:10.3390/metabo9050085)
